Target: KCNQ 2/3 channels (HEK293 cells stably expressing human KCNQ2 and KCNQ3 subunits) (Homo sapiens, UniProt O43525+O43526)
Test: KCNQ2/3 channel activation, thallium flux FLIPR assay with BTC-AM dye
Details: HEK293 cells expressing human KCNQ2 and KCNQ3; thallium flux, FLIPR
measuredProperty: EC50

Please review the entries below; each comes with its answer.
> print(dat)
                                   compound               val
1  O=C(CC12CC3CC(CC(C3)C1)C2)Nn1nc(-c2ccc(C(F)(F)F)cc2)c2ccccc2c1=O          < 100 nM
2  CC(C)c1nn(NC(=O)CC23CC4CC(CC(C4)C2)C3)c(=O)c2c1C1CCC2CC1  1000 to 10000 nM
3  O=C(Cc1cc(F)cc(F)c1)Nn1nc(C2CCCC2)c2ccccc2c1=O          < 100 nM
4  O=C(Cc1ccc(Cl)cc1)Nn1nc(-c2ccccc2)c2ccsc2c1=O  1000 to 10000 nM
5  O=C(C[C@H]1C[C@@H]2CC[C@H]1C2)Nn1nc(C2CCC2)c2ccccc2c1=O (racemic)          < 100 nM
6  O=C(CSC12CC3CC(CC(C3)C1)C2)Nn1nc(C(F)(F)F)c2ccccc2c1=O     100 to 500 nM
7  Cc1ccc(C)c(-c2nn(NC(=O)Cc3ccc(Cl)cc3)c(=O)c3ccccc23)c1     100 to 500 nM

Consider the additional compound presented here.
Return reported EC50. Input compound: O=C(Cc1ccc(Cl)cc1)Nn1nc(-c2ccc(F)cc2)c2ccccc2c1=O
100 to 500 nM

###

Molecular target: KCNQ 2/3 channels (HEK293 cells stably expressing human KCNQ2 and KCNQ3 subunits) (Homo sapiens, UniProt O43525+O43526)
Construct: expressed in transfected cells; host or cells: HEK293
Assay: KCNQ2/3 channel activation, thallium flux FLIPR assay with BTC-AM dye
Type: cell-based
Details: HEK293; maximum response relative to the response produced by 10 μM retigabine (set at 100%); read-out: Max. %
measuredProperty: Emax (%)

> print(dat)
                                 testsmiles  val
1  Cc1cccc(CC(=O)Nn2nc(-c3ccc(Cl)cc3)c3ccccc3c2=O)c1   96
2  CC(C)(CC(=O)Nn1nc(Cc2ccccc2)c2ccccc2c1=O)c1ccccc1  126
3  Cc1ccc(CC(=O)Nn2nc(-c3ccc(Cl)cc3)c3ccccc3c2=O)cc1   98

I. O=C(CC12CC3CC(CC(C3)C1)C2)Nn1nc(-c2ccccc2)c2ccccc2c1=O
II. COc1ccc(-c2nn(NC(=O)CC34CC5CC(CC(C5)C3)C4)c(=O)c3cc(Br)ccc23)cc1
III. O=C(Cc1ccc(Cl)cc1)Nn1nc(-c2ccc(Cl)cc2)c2c(F)ccc(F)c2c1=O
IV. COc1cccc(CC(=O)Nn2nc(-c3ccc(Cl)cc3)c3ccccc3c2=O)c1
Put the items in order so that reported Emax rises from first to last. Hello, could you send the labels back in the order asked? Thank you.
II, IV, III, I

a. CSCC(=O)Nn1nc(C(F)(F)F)c2ccccc2c1=O
b. O=C(CC12CC3CC(CC(C3)C1)C2)Nn1nc(-c2ccccc2)c2c(c1=O)CCCC2
c. CC(C)c1nn(NC(=O)CC23CC4CC(CC(C4)C2)C3)c(=O)c2cc(C(F)(F)F)ccc12
Could you please sort these 3 entries by Emax from high to low? Hello, could you send the labels back in the order asked? Thank you.
b, a, c
(b: 144%, a: 25%, c: -12%)

a. O=C(Cc1cccc(C(F)(F)F)c1)Nn1nc(-c2ccc(Cl)cc2)c2ccccc2c1=O
b. O=C(Cc1ccc(Cl)cc1)Nn1nc(-c2ccc(Cl)cc2)c2ccccc2c1=O
c. O=C(CC12CC3CC(CC(O)(C3)C1)C2)Nn1nc(-c2ccccc2)c2ccsc2c1=O
d. O=C(Cc1ccc(Cl)cc1)Nn1nc(-c2ccccc2)c2c(F)ccc(F)c2c1=O
Put the items in order so that reported Emax rises from first to last. Hello, could you send the labels back in the order asked? Thank you.
c, a, b, d
(c: -3%, a: 79%, b: 120%, d: 175%)

A. O=C(Cc1ccc(Cl)cc1)Nn1nc(C2CCCCC2)c2ccccc2c1=O
B. COC(=O)c1ccc(-c2nn(NC(=O)Cc3ccc(Cl)cc3)c(=O)c3ccccc23)cc1
Input pair: A , B . Output: entry with lower Emax. API: response body contains the label of the selected item.
B
(B: 80%, A: 157%)
